Source of measurements: patent US20260317324A1

tested.system: BRAF G469A (Homo sapiens, UniProt P15056, G469A)
Construct: Horizon Discovery (HCT-116 BRAF−/− cells); host or cells: HCT-116 BRAF−/− cells, clone 34, lentiviral transduction
Sequence (P15056 whole entry G469A): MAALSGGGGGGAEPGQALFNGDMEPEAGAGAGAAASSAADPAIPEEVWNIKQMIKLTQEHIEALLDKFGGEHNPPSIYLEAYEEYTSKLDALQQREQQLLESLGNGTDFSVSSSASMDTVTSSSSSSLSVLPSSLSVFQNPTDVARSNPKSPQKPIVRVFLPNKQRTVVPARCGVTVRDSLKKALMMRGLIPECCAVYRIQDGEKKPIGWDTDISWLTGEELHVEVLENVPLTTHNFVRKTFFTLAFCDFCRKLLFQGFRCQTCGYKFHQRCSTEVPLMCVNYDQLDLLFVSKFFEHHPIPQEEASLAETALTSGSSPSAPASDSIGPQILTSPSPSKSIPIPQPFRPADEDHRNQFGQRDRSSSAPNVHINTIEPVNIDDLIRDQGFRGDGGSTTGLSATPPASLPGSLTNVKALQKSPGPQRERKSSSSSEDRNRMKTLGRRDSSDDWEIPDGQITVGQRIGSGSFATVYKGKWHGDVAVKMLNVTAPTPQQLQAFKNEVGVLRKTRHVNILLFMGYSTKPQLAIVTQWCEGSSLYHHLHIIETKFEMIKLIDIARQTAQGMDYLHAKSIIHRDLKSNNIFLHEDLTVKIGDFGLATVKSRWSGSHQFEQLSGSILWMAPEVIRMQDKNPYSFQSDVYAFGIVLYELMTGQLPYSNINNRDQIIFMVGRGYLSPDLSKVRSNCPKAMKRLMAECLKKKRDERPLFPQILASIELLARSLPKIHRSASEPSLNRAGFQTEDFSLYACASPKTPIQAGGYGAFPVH
experimental.details: BRAF HiBiT degradation assay, C-terminal HiBiT-tagged BRAF G469A overexpressed in HCT-116 BRAF−/− cells (clone 34), Nano-Glo HiBiT Lytic assay
Type: cell-based
experimental.parameters: BRAF G469A (Class 2), HCT-116 BRAF−/− cells; DC50 at 50% degradation
Exercise: state measured DC50 for each of the compounds provided.

Please report the measured DC50 for C[C@@H]1CN(c2ccc(-n3cc(-c4cc(Cl)cc(NS(=O)(=O)N5CCCC5)c4F)c(-c4ccncc4)n3)cc2)CCN1CC1CCN(c2ccc(C3CCC(=O)NC3=O)cn2)CC1 (mixture of isomers)
< 10 nM

Please report the measured DC50 for `O=C1CC[C@H](c2ccc(N3CCC(CN4CCN(c5ccc(-n6cc(-c7cc(Cl)cc(NS(=O)(=O)N8CCCC8)c7F)c(-c7ccncc7)n6)cc5)CC4)CC3)nc2)C(=O)N1`
< 10 nM

Please report the measured DC50 for `O=C1CCN(c2ccc(N3CCC(CN4CCN(c5ccc(-n6cc(-c7cc(Cl)cc(NS(=O)(=O)N8CC[C@@H](F)C8)c7F)c(-c7ccncc7)n6)c(F)c5)CC4)CC3)nc2)C(=O)N1`
< 10 nM

Please report the measured DC50 for O=C1CCC(c2ccc(N3CCC4(CC3)CC(CN3CCN(c5ccc(-n6cc(-c7cc(Cl)cc(NS(=O)(=O)N8CC[C@@H](F)C8)c7F)c(-c7ccncc7)n6)nc5)CC3)C4)cc2)C(=O)N1 (mixture of isomers)
> 500 nM

Please report the measured DC50 for `CCN(C)S(=O)(=O)Nc1cc(Cl)cc(-c2cn(-c3ccc(N4CCN(CC5CCN(c6ccc(N7CCC(=O)NC7=O)cc6)CC5)CC4)cc3)nc2-c2ccncc2)c1F`
50 to 500 nM

Please report the measured DC50 for O=C1CCC(c2ccc(N3CCC(CN4CCN(c5ccc(-n6cc(-c7cc(Cl)cc(NS(=O)(=O)N8CC(F)C8)c7F)c(-c7ccncc7)n6)c(F)c5)CC4)CC3)nc2)C(=O)N1 (racemic)
10 to 50 nM

Please report the measured DC50 for CCCS(=O)(=O)Nc1cccc(-c2nc(C3CCC4(CC3)CCN(C[C@H]3CC[C@H](Oc5ccc(C6CCC(=O)NC6=O)cn5)CC3)CC4)sc2-c2ccnc(N)n2)c1F (mixture of isomers)
> 500 nM

Please report the measured DC50 for `CCN(C)S(=O)(=O)Nc1cccc(-c2cn(-c3ccc(N4CCN(CC5CCN(c6ccc([C@@H]7CCC(=O)NC7=O)cn6)CC5)CC4)c(F)c3)nc2-c2ccncc2)c1F`
> 500 nM

Please report the measured DC50 for O=C1CCC(c2ccc(N3CCC(CN4CCN(c5ccc(-n6cc(-c7cc(Cl)cc(NS(=O)(=O)N8CCCC8)c7F)c(-c7ccncc7)n6)cn5)CC4)CC3)nc2)C(=O)N1 (racemic)
< 10 nM

Please report the measured DC50 for `C[C@@H]1CN(c2ccc(-n3cc(-c4cc(Cl)cc(NS(=O)(=O)N5CC[C@@H](F)C5)c4F)c(-c4ccncc4)n3)cc2)CCN1CC1CCN(c2ccc([C@H]3CCC(=O)NC3=O)cc2)CC1`
< 10 nM

Please report the measured DC50 for `O=C1CCN(c2ccc(N3CCC(CN4CCN(c5ccc(-n6cc(-c7cc(Cl)cc(NS(=O)(=O)N8CC(F)C8)c7F)c(-c7ccncc7)n6)c(F)c5)CC4)CC3)nc2)C(=O)N1`
< 10 nM

Please report the measured DC50 for O=C1CCC(c2ccc(N3CCC(F)(CN4CCN(c5ccc(-n6cc(-c7cc(Cl)cc(NS(=O)(=O)N8CCCC8)c7F)c(-c7ccncc7)n6)cc5)CC4)CC3)cc2)C(=O)N1 (racemic)
10 to 50 nM
